- assay.target: Melanin-concentrating hormone receptor 1 (Homo sapiens, UniProt Q99705)
- Sequence (Q99705 whole entry): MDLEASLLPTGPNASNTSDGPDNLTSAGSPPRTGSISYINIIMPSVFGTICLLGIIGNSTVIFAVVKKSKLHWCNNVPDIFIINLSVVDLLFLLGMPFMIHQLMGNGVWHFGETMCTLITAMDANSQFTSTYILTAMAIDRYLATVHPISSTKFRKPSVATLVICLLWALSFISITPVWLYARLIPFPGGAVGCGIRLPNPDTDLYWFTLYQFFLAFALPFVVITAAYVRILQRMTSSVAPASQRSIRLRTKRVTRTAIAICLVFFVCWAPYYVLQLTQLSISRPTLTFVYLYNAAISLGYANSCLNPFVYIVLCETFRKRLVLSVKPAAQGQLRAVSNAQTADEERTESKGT
- test.description: Displacement of [125I]MCH from human recombinant MCHR1 expressed CHO-K1 cell membrane by SPA-YSI assay
- Type: cell membranes
readout.name: IC50 (µM)
API: value field is a number in µM; no unit string.

Here is how some compounds turned out for IC50.
1. CC(=O)Nc1cccc(C2CCN(Cc3ccc(C(=O)c4nc5ccccc5n4-c4ccc(F)cc4)cn3)CC2)c1 :: 0.027
2. CC(=O)Nc1cccc(C2CCN(Cc3ccc(C(=O)c4nc5ccccc5n4C4CCOCC4)cc3)CC2)c1 :: 0.055
3. CC(=O)Nc1cccc(C2CCN(Cc3ccc(C(=O)c4nc5ccccc5n4C4CC4)cc3)CC2)c1 :: 0.271
4. CC(=O)Nc1cccc(C2CCN(Cc3ccc(C(=O)c4nc5ccccc5n4-c4ccc(C(F)(F)F)cc4)cc3)CC2)c1 :: 1
5. CC(=O)Nc1cccc(C2CCN(Cc3ccc(Cc4nc5ccccc5n4-c4ccc(F)cc4)cc3C#N)CC2)c1 :: 0.01

# compound CC(=O)Nc1cccc(C2CCN(Cc3ccc(C(=O)c4nc5ccccc5n4C(C)C)cc3)CC2)c1 ; its IC50 = 0.138

---

- assay.target: Melanin-concentrating hormone receptor 1 (Homo sapiens, UniProt Q99705)
- test.description: Antagonist activity at MCHR1 (unknown origin) assessed as IP3 levels by cell-based functional assay
pIC50: −log10 of the molar value.
Parameter threshold = 7. Response is label 1 when pIC50 meets or exceeds it, else label 0.

Solved cases (8 shown):
1) CC(=O)Nc1cccc(C2CCN(Cc3ccc(C(=O)c4nc5ccccc5n4C)cc3)CC2)c1 :: label 0
2) CC(=O)Nc1cccc(C2CCN(Cc3ccc(C(=O)c4nc5ccccc5n4-c4ccc(F)cc4)nc3)CC2)c1 :: label 1
3) CC(=O)Nc1cccc(C2CCN(Cc3ccc(C(=O)c4nc5ccccc5n4C4CCOCC4)cc3)CC2)c1 :: label 1
4) CC(=O)Nc1cccc(C2CCN(Cc3ccc(C(=O)c4nc5ccccc5n4-c4ccc(F)cc4)cc3C#N)CC2)c1 :: label 0
5) CC(=O)Nc1cccc(C2CCN(Cc3ccc(C(=O)c4nc5ccccc5n4-c4ccc(C(F)(F)F)cc4)cc3)CC2)c1 :: label 0
6) CC(=O)Nc1cccc(C2CCN(Cc3ccc(C(=O)c4nc5c(F)cc(F)cc5n4-c4ccc(F)cc4)cc3)CC2)c1 :: label 1
7) CC(=O)Nc1cccc(C2CCN(C(C)c3ccc(C(=O)c4nc5ccccc5n4-c4ccc(F)cc4)cc3)CC2)c1 (stereo not given) :: label 0
8) CC(=O)Nc1cccc(C2CCN(Cc3ccc(C(=O)c4nc5ccccc5n4-c4ccc(Cl)cc4)cc3)CC2)c1 :: label 0

Please check the record CC(=O)Nc1cccc(C2CCN(Cc3ccc(C(=O)c4nc5ccccc5n4-c4ccc(F)cc4)cc3C(F)(F)F)CC2)c1 and state if its pIC50 is at or above 7. label 0

// inclusive: pIC50 at least 7? input: CC(=O)Nc1cccc(C2CCN(Cc3ccc(C(=O)c4nc5ccccc5n4-c4ccc(F)cc4)cc3)CC2)c1 label 1

# check: pIC50 of CC(=O)Nc1cccc(C2CCN(Cc3ccc(C(=O)c4nc5ccccc5n4C4CC4)cc3)CC2)c1 is greater than or equal to 7 label 0

Could you verify whether the entry CC(=O)Nc1cccc(C2CCN(Cc3ccc(C(=O)c4nc5ccccc5n4-c4ccc(C#N)cc4)cc3)CC2)c1 shows pIC50 of no less than 7? label 0
